tested on: LLC-PK1; experiment: Renoprotective activity against AAPH-induced oxidative damage in pig LLC-PK1 cells assessed as cell viability at 10 ug/ml after 24 hrs by MTT assay relative to control; assay type: functional; conditions: Sus scrofa, LLC-PK1, 24 h; read-out: Activity
Readout name: viability at 10 µg/mL (%)

INSERT INTO results (smiles_code, uom, quantitative_result) VALUES
  ('CC(C)=CCC[C@](C)(O)[C@H]1CC[C@]2(C)[C@@H]1[C@H](O)C[C@@H]1[C@@]3(C)CC[C@H](O)C(C)(C)[C@@H]3[C@@H](O)C[C@]12C', '%', 85.7),
  ('CC(C)=CC/C=C(\C)[C@H]1CC[C@]2(C)[C@@H]1[C@H](O)C[C@@H]1[C@@]3(C)CC[C@H](O)C(C)(C)[C@@H]3CC[C@]12C', '%', 64.6),
  ('C=C(CCC=C(C)C)[C@H]1CC[C@]2(C)[C@@H]1[C@H](O)C[C@@H]1[C@@]3(C)CC[C@H](O)C(C)(C)[C@@H]3[C@@H](O)C[C@]12C', '%', 101),
  ('CC(C)=CCC[C@](C)(O)[C@H]1CC[C@]2(C)[C@@H]1[C@H](O)C[C@@H]1[C@@]3(C)CC[C@H](O)C(C)(C)[C@@H]3CC[C@]12C', '%', 62.6),
  ('C=C(CCC=C(C)C)[C@H]1CC[C@]2(C)[C@@H]1[C@H](O)C[C@@H]1[C@@]3(C)CC[C@H](O)C(C)(C)[C@@H]3CC[C@]12C', '%', 85.5),
  ('CC(C)=CC/C=C(\C)[C@H]1CC[C@]2(C)[C@@H]1[C@H](O)C[C@@H]1[C@@]3(C)CC[C@H](O)C(C)(C)[C@@H]3[C@@H](O)C[C@]12C', '%', 63.3);
